Target: human sphingosine-1-phosphate receptor 1 (S1P1) (Homo sapiens)
Assay: β-Arrestin2 recruitment assay (PathHunter), S1P1 CHO-K1 cells
Format: cell-based
Conditions: β-arrestin2 recruitment, S1P1; read-out: hS1P1 B-arrestin2 pEC50 (converted)
assay.endpoint: EC50

Worked set:
INPUT: Quick one: give measured EC50 for Cn1cnc2ccc(-c3nnc(-c4ccc(NCC(F)F)c(C#N)c4)o3)cc21 [Compound 580]
OUTPUT: < 10 µM

INPUT: Return the recorded EC50 value; entry: CC1CC(=O)c2ccc(-c3nc(-c4cccnc4)no3)cc2O1 (stereo not drawn) [Compound 535]
OUTPUT: < 10 µM

INPUT: Please indicate EC50 recorded for COc1ncccc1-c1noc(-c2ccc3c(c2)nnn3C(C)C)n1 [Compound 619]
OUTPUT: < 10 µM

INPUT: Look up and report measured EC50 for this entry: COc1ccccc1-c1nc(-c2ccc3c(ccn3C(C)C)c2)ns1 [Compound 375]
OUTPUT: < 10 µM

Others:
INPUT: Let me know recorded EC50 for Cn1cnc2ccc(-c3nnc(-c4ccc(NCC(F)(F)CO)c(C#N)c4)o3)cc21 [Compound 635] , thanks.
OUTPUT: < 10 µM

INPUT: Return EC50 for the following molecule: CCC1(CC)CC(=O)c2cc(-c3nc(-c4cncnc4)no3)ccc2O1 [Compound 620]
OUTPUT: < 10 µM

INPUT: Find the measured EC50 of Cn1ccnc1-c1noc(-c2ccc3c(c2)nnn3CC(C)(C)O)n1 [Compound 567] and report it.
OUTPUT: > 10 µM

INPUT: Look up EC50 of CCC1(CC)CC(=O)c2cc(-c3nc(-c4ccc(F)nc4)no3)ccc2O1 [Compound 546] and report it.
OUTPUT: > 10 µM

INPUT: State its EC50 for this molecule: CCC1(CC)CC(=O)c2cc(-c3nc(-c4cnccc4C(F)(F)F)no3)ccc2O1 [Compound 558]
OUTPUT: < 10 µM

INPUT: Note EC50 for the molecule shown: COc1ccccc1-c1nc(-c2ccc3c(c2)nnn3CC(C)(C)CO)no1 [Compound 525]
OUTPUT: > 10 µM

INPUT: For COc1cnccc1-c1nc(-c2ccc3c(ccn3C(C)C)c2)no1 [Compound 391] , write its EC50.
OUTPUT: < 10 µM

INPUT: Supply reported EC50 belonging to this molecule: CCC1(CC)CC(=O)c2cc(-c3nc(-c4ccnc(NS(C)(=O)=O)c4)no3)ccc2O1 [Compound 556]
OUTPUT: < 10 µM

INPUT: Complete the entry with EC50 for CC(C)n1ccc2cc(-c3nsc(-c4ccccc4F)n3)ccc21 [Compound 380]
OUTPUT: > 10 µM

----------
Target: human sphingosine-1-phosphate receptor 1 (S1P1) (Homo sapiens, UniProt P21453)
Sequence (P21453 whole entry): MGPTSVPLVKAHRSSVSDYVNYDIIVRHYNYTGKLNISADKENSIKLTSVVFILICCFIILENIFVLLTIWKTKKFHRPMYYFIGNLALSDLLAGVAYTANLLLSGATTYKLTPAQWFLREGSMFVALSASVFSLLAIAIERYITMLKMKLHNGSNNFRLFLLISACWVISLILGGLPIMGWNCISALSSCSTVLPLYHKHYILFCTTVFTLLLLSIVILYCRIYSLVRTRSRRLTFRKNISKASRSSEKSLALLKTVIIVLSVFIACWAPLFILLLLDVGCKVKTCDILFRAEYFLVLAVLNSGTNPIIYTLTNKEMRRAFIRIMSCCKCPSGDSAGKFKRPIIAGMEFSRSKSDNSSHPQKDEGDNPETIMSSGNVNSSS
Sequence (P32121 whole entry partner): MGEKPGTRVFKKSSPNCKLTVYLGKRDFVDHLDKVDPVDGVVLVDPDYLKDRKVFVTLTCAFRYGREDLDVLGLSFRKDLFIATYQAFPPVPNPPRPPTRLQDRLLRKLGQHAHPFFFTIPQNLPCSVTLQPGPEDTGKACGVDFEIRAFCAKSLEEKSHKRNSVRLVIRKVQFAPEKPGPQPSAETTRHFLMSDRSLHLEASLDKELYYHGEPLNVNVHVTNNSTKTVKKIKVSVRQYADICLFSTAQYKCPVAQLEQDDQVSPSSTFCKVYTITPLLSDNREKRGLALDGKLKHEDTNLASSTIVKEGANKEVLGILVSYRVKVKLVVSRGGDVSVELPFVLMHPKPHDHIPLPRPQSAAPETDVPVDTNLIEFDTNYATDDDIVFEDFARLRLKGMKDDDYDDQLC
Assay: β-Arrestin2 recruitment assay (PathHunter), S1P1 CHO-K1 cells
Assay type: cell-based
Conditions: β-arrestin2 recruitment; potency; read-out: hS1P1 B-arrestin2 pEC50 (converted)
EC50 reference

INPUT: Look up and state reported EC50 for Cc1cncc(-c2nc(-c3ccc4c(c3)nnn4C(C)C)no2)c1 [Compound 159]
OUTPUT: > 10 µM

INPUT: Given Oc1ccc(-c2noc(-c3ccc4c(c3)nnn4C3CCCC3)n2)cc1 [Compound 13] , respond with its EC50.
OUTPUT: < 10 µM

INPUT: Identify measured EC50 associated with CCCn1nnc2cc(-c3nc(-c4ccc(C(F)(F)F)c(F)c4)no3)ccc21 [Compound 193]
OUTPUT: > 10 µM

INPUT: Identify measured EC50 corresponding to CC(C)n1nnc2cc(-c3noc(-c4ccc(-c5ccccc5)cc4)n3)ccc21 [Compound 248]
OUTPUT: > 10 µM

INPUT: Specify measured EC50 for COc1ccc(-c2nsc(-c3ccc4[nH]ccc4c3)n2)cc1 [Compound 363] .
OUTPUT: > 10 µM

INPUT: Tell us which EC50 value is on record for Cc1ccc(-c2nc(-c3ccc4c(c3)nnn4C(C)C)no2)c(C)c1 [Compound 166]
OUTPUT: > 10 µM

Continuing:
INPUT: For the compound OCCCn1nnc2cc(-c3noc(-c4ccccc4Br)n3)ccc21 [Compound 24] , give its measured EC50 value.
OUTPUT: > 10 µM

INPUT: Supply recorded EC50 for CCC1(CC)CC(=O)c2cc(-c3nc(-c4cccc(O)c4)no3)ccc2O1 [Compound 227] here.
OUTPUT: > 10 µM
